compounds and their reported IC50
test_system: ATX (human His-tagged) (Homo sapiens (Human), UniProt Q13822)
Write the answer as a number in nM, unit excluded.

compound | IC50 / nM
O=C(c1cnc(OC2CCOC2)c(C2CC2)c1)N1C[C@@H]2CN(C(=O)c3ccc4[nH]nnc4c3)C[C@H]2C1 (some centres unmarked) | 10.5

Reported IC50 (ATX (human His-tagged) (Homo sapiens (Human), UniProt Q13822)) for entry O=C(c1ccc(OC2CCOC2)c(C2CC2)c1)N1C[C@@H]2CN(C(=O)[C@@H]3CCc4[nH]nnc4C3)C[C@H]2C1 (some centres unmarked) is 17

Result for `O=C(c1cc(OCC2CCOCC2)nc(C2CC2)c1)N1C[C@@H]2CN(Cc3ccc4[nH]nnc4c3)C[C@H]2C1` , tested on ATX (human His-tagged) (Homo sapiens (Human), UniProt Q13822), IC50: 10

# value of IC50, ATX (human His-tagged) (Homo sapiens (Human), UniProt Q13822), item O=C(c1cnc(OC2CCCOC2)c(C2CC2)c1)N1C[C@@H]2CN(C(=O)c3ccc4[nH]nnc4c3)C[C@H]2C1 (some centres unmarked) = 4.5

ATX (human His-tagged) (Homo sapiens (Human), UniProt Q13822) data for `CN(C)c1cc(C(=O)N2C[C@@H]3CN(C(=O)c4ccc5[nH]nnc5c4)C[C@H]3C2)cc(OCC2CCOCC2)n1` ; its IC50: 5

IC50 value, target or system ATX (human His-tagged) (Homo sapiens (Human), UniProt Q13822), for `O=C(c1cc(Cl)nc(OCC2CCOCC2)c1)N1C[C@@H]2CN(C(=O)c3ccc4[nH]nnc4c3)C[C@H]2C1` : 40

---

test_system: ATX (human His-tagged) (Homo sapiens (Human), UniProt Q13822)
measured_endpoint: pIC50
Scale: pIC50 equals -log10([C]), with [C] in mol/L.

Here are 5 molecules together with their reported answers.
molecule | test_system | pIC50
NS(=O)(=O)c1ccc(C(=O)N2C[C@H]3CN(C(=O)c4cnc(OC5CCCOC5)c(C5CC5)c4)C[C@@H]3C2)nc1 (some centres unmarked) | ATX (human His-tagged) (Homo sapiens (Human), UniProt Q13822) | 8.00
O=C(c1cc(OCC2CCOCC2)nc(C2CC2)c1)N1C[C@@H]2CN(C(=O)c3ccc4[nH]c(=O)oc4c3)C[C@H]2C1 | ATX (human His-tagged) (Homo sapiens (Human), UniProt Q13822) | 7.92
O=C(c1cnc(OC2COC2)c(C(F)(F)F)c1)N1C[C@@H]2CN(C(=O)c3ccc4[nH]nnc4c3)C[C@H]2C1 | ATX (human His-tagged) (Homo sapiens (Human), UniProt Q13822) | 7.16
O=C(c1ccc2[nH]nnc2c1)N1CC[C@@H]2CN(C(=O)c3cc(OCC4CCOCC4)nc(C4CC4)c3)C[C@@H]2CC1 | ATX (human His-tagged) (Homo sapiens (Human), UniProt Q13822) | 8.00
O=C(c1cnc(OC2CCOCC2)c(C2CC2)c1)N1C[C@@H]2CN(Cc3ccc4[nH]nnc4c3)C[C@H]2C1 | ATX (human His-tagged) (Homo sapiens (Human), UniProt Q13822) | 7.41

Recorded result, `NS(=O)(=O)c1ccc(C(=O)N2C[C@H]3CN(C(=O)c4cc(OCC5CCOCC5)nc(C5CC5)c4)C[C@@H]3C2)cc1Cl` , pIC50: 8.22
